testedTarget: Histamine H3 receptor (Rattus norvegicus, UniProt Q9QYN8)
Sequence (Q9QYN8 whole entry): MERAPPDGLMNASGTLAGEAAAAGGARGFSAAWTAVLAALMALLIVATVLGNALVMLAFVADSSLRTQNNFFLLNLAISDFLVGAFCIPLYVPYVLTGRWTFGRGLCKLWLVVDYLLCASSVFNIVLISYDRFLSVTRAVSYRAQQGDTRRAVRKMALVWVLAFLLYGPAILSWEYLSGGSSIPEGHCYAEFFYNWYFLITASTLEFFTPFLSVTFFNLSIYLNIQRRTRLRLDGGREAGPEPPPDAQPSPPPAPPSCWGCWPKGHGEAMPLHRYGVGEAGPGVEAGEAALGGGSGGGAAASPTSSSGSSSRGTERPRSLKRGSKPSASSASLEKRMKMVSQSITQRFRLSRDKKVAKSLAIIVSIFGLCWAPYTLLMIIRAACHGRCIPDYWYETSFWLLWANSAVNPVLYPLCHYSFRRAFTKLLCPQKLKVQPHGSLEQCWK
method: Rat Histamine H3 receptor antagonism determined by [K+] - evoked depolarization-induced release of [3H]histamine from rat cerebral cortex synaptosomes
# note: exactly 10 nM is not below, so it is No; use Yes for Ki strictly under it

# structureSmilesString, testedTarget, groupLabel
data = [
    ("O=[N+]([O-])c1cccc(OCCc2c[nH]cn2)c1", "Histamine H3 receptor (Rattus norvegicus, UniProt Q9QYN8)", "No"),
    ("O=C(c1ccc(OCCc2cnc[nH]2)cc1)N1CCCCC1", "Histamine H3 receptor (Rattus norvegicus, UniProt Q9QYN8)", "No"),
    ("FC(F)(F)c1ccc(OCCc2cnc[nH]2)cc1", "Histamine H3 receptor (Rattus norvegicus, UniProt Q9QYN8)", "No"),
    ("Clc1ccc(OCCc2c[nH]cn2)cc1", "Histamine H3 receptor (Rattus norvegicus, UniProt Q9QYN8)", "No"),
    ("Clc1cc(Cl)cc(OCCc2c[nH]cn2)c1", "Histamine H3 receptor (Rattus norvegicus, UniProt Q9QYN8)", "No"),
    ("Brc1ccc(OCCc2c[nH]cn2)cc1", "Histamine H3 receptor (Rattus norvegicus, UniProt Q9QYN8)", "No"),
    ("c1ccc2c(OCCc3c[nH]cn3)cccc2c1", "Histamine H3 receptor (Rattus norvegicus, UniProt Q9QYN8)", "No"),
    ("CCOC(=O)c1ccc(OCCc2c[nH]cn2)cc1", "Histamine H3 receptor (Rattus norvegicus, UniProt Q9QYN8)", "Yes"),
]

In the record for COc1ccc(OCCc2cnc[nH]2)cc1 , is Ki less than 10 nM?
No

Does O=C(c1ccccc1)c1ccc(OCCc2c[nH]cn2)cc1 have Ki strictly under 10 nM?
No

Field: below-cutoff. Rule: recorded Ki strictly less than 10 nM. Subject: CCc1ccc(OCCc2cnc[nH]2)cc1
No

Lab note: Ki threshold 10 nM. Does this molecule come in strictly under it? O=[N+]([O-])c1ccc(NCCc2c[nH]cn2)nc1
No

Identify whether the molecule Fc1c(F)c(F)c(OCCc2c[nH]cn2)c(F)c1F records Ki below 10 nM.
No
